Values compiled from PubChem BioAssay AID652061.

assay: enhancers of UUG start codon usage in yeast, dose response, S. cerevisiae, UUG firefly luciferase, cherry-pick, set 2 (AID 652061); conditions: luminescence, 4 h, 100% means double the DMSO signal; measured here: max activity, test 2, at 38 µM, test 2, stronger effect = higher value unless noted;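 also: 0% = median DMSO signal and 100% = twice the DMSO signal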
Some of the results follow.
observation_type: max activity

>>> df
                                smiles_text  observed
0  CN1CCN(C(=O)/C(=C\c2cccs2)NC(=O)c2cccs2)CC1     13.1%

* * *

assay: enhancers of UUG start codon usage in yeast, dose response, S. cerevisiae, UUG firefly luciferase, cherry-pick, set 2 (AID 652061); settings: luminescence, 4 h, 100% means double the DMSO signal; measured here: max activity, test 2, at 38 µM, test 2, stronger effect = higher value unless noted;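 also: 0% = median DMSO signal and 100% = twice the DMSO signal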
The other results are listed elsewhere or left out.
# Lookup of reported max activity keyed by entry
observation_type: max activity

In [3]: df
Out[3]:
                                   compound  observed
0  Cc1c(Nc2cc(N3CCCC(C)C3)c3nonc3c2[N+](=O)[O-])c(=O)n(-c2ccccc2)n1C (stereo unspecified)     9.02%
1  Cc1onc(-c2ccc(Cl)cc2)c1-c1ccnn1S(=O)(=O)c1ccc(Cl)cc1     13.9%
